STUDY TARGET: TAOK1 (human)
PROTOCOL DESCRIPTION: radiometric filter-binding kinase assay
COND: compound 1.0 µM
Collected residual activity values appear next to each entry.
PARAMETER MEASURED: residual activity (%)

record_smiles=O=C(N[C@@H](COc1ccc2[nH]c(=O)[nH]c2c1)c1ccccc1)c1cccn(Cc2ccc(F)c(F)c2)c1=O parameter_measured="residual activity" reported_result=126
record_smiles=NC(=O)c1ccc(-c2ccc(Oc3cncc4sc(-c5nn[nH]n5)cc34)cc2)cc1 parameter_measured="residual activity" reported_result=82
record_smiles=NS(=O)(=O)OC[C@@H]1C[C@@H](n2ccc3c(N[C@H]4CCc5ccccc54)ncnc32)C[C@@H]1O parameter_measured="residual activity" reported_result=104
record_smiles=Cc1ccc(=O)n(-c2ccccc2)c1 parameter_measured="residual activity" reported_result=118
record_smiles=CC(C)(C#N)c1ccc(N2C(=O)OCc3cnc4ccc(-c5cnc6ccccc6c5)cc4c32)cc1 parameter_measured="residual activity" reported_result=91
record_smiles=COc1cc2ncn(-c3cc(OCc4ccccc4S(C)(=O)=O)c(C#N)s3)c2cc1OC parameter_measured="residual activity" reported_result=61
record_smiles=O=c1c(O)c(-c2ccc(O)c(O)c2)oc2cc(O)c(O)c(O)c12 parameter_measured="residual activity" reported_result=94
record_smiles=O=C(Nc1ccccc1-c1cn2c(CN3CCNCC3)csc2n1)c1cnc2ccccc2n1 parameter_measured="residual activity" reported_result=86
record_smiles=FC(F)(F)c1ccc(-c2ccc(Oc3cncc4sc(-c5nn[nH]n5)cc34)cc2)cc1 parameter_measured="residual activity" reported_result=65
record_smiles=CCn1c(-c2nonc2N)nc2cncc(CNC3CCNCC3)c21 parameter_measured="residual activity" reported_result=108
record_smiles=CNc1nc(-c2ccc3c(N)n[nH]c3c2)cc(N2C[C@@H](C(=O)NC3CCCCC3)CC[C@H]2C)n1 parameter_measured="residual activity" reported_result=86
record_smiles=CCNc1nc(Nc2cc(F)c(C(=O)N3CCOCC3)cc2OC)ncc1C(F)(F)F parameter_measured="residual activity" reported_result=111
record_smiles=O=C(NOC[C@H](O)CO)c1ccc(F)c(F)c1Nc1ccc(I)cc1Cl parameter_measured="residual activity" reported_result=101
